Sourced from patent US20230235277A1

Test system: human liver microtissues
protocol.summary: Inflammation-mediated toxicity testing with human liver microtissues in presence and absence of LPS
Type: cell-based
experimental.setup: absence of LPS (−LPS), read-out: IC50 (hepatotoxic threshold) of induced toxicity without LPS
endpoint.name: pIC50
Bear in mind: pIC50 is minus log10 of a mol/L concentration; give just that figure.

Reported pIC50 for human liver microtissues, given "N[C@@H]1[C@H]2CN(c3nc4c(cc3F)c(=O)c(C(=O)O)cn4-c3ccc(F)cc3F)C[C@@H]12" ?
3.66
